meta.source: PubChem BioAssay (NCI)

# Tested on: MDA-MB-435 melanoma
# assay_text: NCI-60 one-dose screen, 48 h (100 = growth as untreated, 0 = no growth, -100 = all killed)
# condition_label: 10 µM
This is part of a sample that, as a whole, favours compounds with a hit. Of some 83,000 tested, about 20% had one in any assay.
measured_property: growth (%)
Express it in %; write the number only.

Consider the following illustrative entries.
# return recorded growth for entry "Nc1nc(Nc2ccccc2)nn1Cc1c(Cl)cccc1Cl"
48.4

# return recorded growth for entry "COc1ccc(-c2ccc(/C=N/NC(=O)c3[nH]c4ccc(Br)cc4c3-c3ccccc3)s2)cc1"
107

---
# return recorded growth for entry O=C(c1ccc(Cl)cc1)C1[C@H](c2ccccc2Br)[C@@H](c2ccccc2)NC12C(=O)Nc1ccc(Cl)cc12 (stereo not given in full)
-35.1

# return recorded growth for entry "O=C(Cn1cc(CSc2nnc3oc4ccccc4n23)nn1)Nc1ccc(Br)cc1"
98.1

# return recorded growth for entry "CC(=O)Nc1ccc(-c2cn(-c3cccc(C(=O)Nc4ccc(F)c(C(F)(F)F)c4)c3)nn2)cn1"
59.7

----------
# Test system: U251 CNS
# assay_text: NCI-60 one-dose screen, 48 h (100 = growth as untreated, 0 = no growth, -100 = all killed)
# condition_label: 10 µM
The panel holds about 83,000 compounds, 20% with a hit somewhere; the sample as a whole holds those more often.
measured_property: growth (%)
Express it in %; write the number only.

# return recorded growth for entry "CC(C)NC(=O)c1cc(-c2ccc(NC(=O)Nc3ccc(N4CCN(C)CC4)c(C(F)(F)F)c3)cc2)nc2cccnc12"
-86.2

---
# return recorded growth for entry "O=C(Cn1cc(CSc2nnc3oc4ccccc4n23)nn1)Nc1ccc(Br)cc1"
54.3

# return recorded growth for entry "O=C(CNc1nc(-c2ccccc2)cs1)Nc1ccc([N+](=O)[O-])cc1Cl"
15.8

----------
# Tested on: SF-539 CNS
# assay_text: NCI-60 one-dose screen, 48 h
# condition_label: 10 µM
About 83,000 compounds went through this panel and 20% of them were active in at least one assay; those are over-represented in the sample as a whole. Calls of active or inactive are those of the source. How the source made its calls: active means growth percent below 10; inactive means the rest.
Respond only with the outcome that fits, drawn from active, inactive

Solved entries (count: 5):
How was "Cc1ccc(-c2ccc(SCC(=O)Nc3ccc(Cl)c(C(F)(F)F)c3)nn2)cc1" classified in this test?
active

How was "CCCn1c(=O)c2[nH]c(-c3ccc(OCc4nc5ccc(C)cc5[nH]4)cc3)nc2n(CCC)c1=O" classified in this test?
active

How was "CC(=O)c1cc(C(=O)c2ccc3c(c2)NC(=O)CO3)n2ccc3ccccc3c12" classified in this test?
inactive

How was "C/C(=N\NC(N)=S)c1ccc(Nc2nc(SC(C)C)nc(-c3ccccc3)c2C#N)cc1" classified in this test?
inactive

How was "CC(=O)Nc1nc(-c2ccc(N3CCN(C)CC3)c(NS(=O)(=O)c3ccc(C(F)(F)F)cc3)c2)cs1" classified in this test?
active

---
How was "Brc1ccc(/C=C/c2n(Cc3ccc4ccccc4c3)c3ccccc3[n+]2Cc2ccc3ccccc3c2)cc1" classified in this test?
active

How was "CCCCCc1ccc(S(=O)(=O)Nc2cc(-c3csc(N(C)C(C)=O)n3)ccc2N2CCN(C)CC2)cc1" classified in this test?
active

----------
# Test system: T-47D breast
# assay_text: NCI-60 one-dose screen, 48 h (100 = growth as untreated, 0 = no growth, -100 = all killed)
# condition_label: 10 µM
The panel holds about 83,000 compounds, 20% with a hit somewhere; the sample as a whole holds those more often.
measured_property: growth (%)
Express it in %; write the number only.

Consider the following illustrative entries.
# return recorded growth for entry "COc1cccc(C(N)=Nc2ccc(OCCCCCCn3cncn3)cc2)c1"
46.1

# return recorded growth for entry "CC(C)c1ccc(C(=O)Nc2sc3c(c2C(N)=O)CCC(=O)C3=O)cc1"
80.3

# return recorded growth for entry "CCCn1c(=O)c2[nH]c(-c3ccc(OCc4nc5ccc(C#N)cc5[nH]4)cc3)nc2n(CCC)c1=O"
35.7

# return recorded growth for entry "Nc1nc(-c2ccccc2)cs1"
16.3

# return recorded growth for entry "C/C(=N\N=C\c1ccc(Cl)c([N+](=O)[O-])c1)c1ccc2c(c1)Nc1ccccc1S2"
41.3

---
# return recorded growth for entry "O=c1oc2ccccc2cc1-c1csc(N=Nc2c(O)[nH]c3ccc(Br)cc23)n1"
89.1

# return recorded growth for entry "COc1ccc(-c2nc(Nc3ccccc3S(N)(=O)=O)c3ccccc3n2)cc1"
35.7

----------
In this section, each of the molecules is paired with its reported growth.
# Test system: PC-3 prostate
# assay_text: NCI-60 one-dose screen, 48 h (100 = growth as untreated, 0 = no growth, -100 = all killed)
# condition_label: 10 µM
The panel holds about 83,000 compounds, 20% with a hit somewhere; the sample as a whole holds those more often.
Express it in %; write the number only.

# return recorded growth for entry "COc1cc2oc(-c3cccc(C(=O)Nc4ccc(Cl)cc4)c3)cc(=O)c2c(OCCNC(=O)CNC(=O)OC(C)(C)C)c1OC"
57.2

# return recorded growth for entry "O=C(CSc1ccc(-c2ccc(Cl)cc2)nn1)Nc1ccc(Cl)c(C(F)(F)F)c1"
71.9

# return recorded growth for entry "O=C(NO)c1ccc(-c2nc3ccc4[nH]ncc4c3c3c2CCCC3)cc1"
15.8

# return recorded growth for entry "COc1ccc(C(C)=C(c2ccc(OCCCN(C)C)cc2)c2ccc(OCCCN(C)C)cc2)cc1"
-82.3

Let us examine a further case.
# return recorded growth for entry "O=C(Nc1ccc(OCc2ccccc2)cc1)Nc1ccc(Cl)c(C(F)(F)F)c1"
-0.967

----------
In this section, each of the compounds is paired with its reported growth.
# System: MDA-MB-468 breast
# assay_text: NCI-60 one-dose screen, 48 h (100 = growth as untreated, 0 = no growth, -100 = all killed)
# condition_label: 10 µM
About 83,000 compounds went through this panel and 20% of them were active in at least one assay; those are over-represented in the sample as a whole.
Express it in %; write the number only.

Consider the following illustrative entries.
# return recorded growth for entry "Cc1ccc([N+](=O)[O-])c(C(=O)Nc2ccc(-c3ccc4c(c3)NC(=O)/C4=C\c3ccc[nH]3)cc2)c1"
-28.9

# return recorded growth for entry "O=C1Nc2ccc(Cl)cc2/C1=C/c1ccc(OCc2ccccn2)cc1"
50.4

Let us examine a further case.
# return recorded growth for entry "O=C1Nc2cc(-c3ccc(NC(=O)c4cccc([N+](=O)[O-])c4)cc3)ccc2/C1=C/c1ccc[nH]1"
-10.9

----------
# Test system: COLO 205 colon
# assay_text: NCI-60 one-dose screen, 48 h
# condition_label: 10 µM
Compounds without any hit were thinned out: in the full panel of roughly 83,000, 20% have a hit. Calls of active or inactive are those of the source. The calls were made as follows: active = growth percent below 10; inactive = the rest.
Respond only with the outcome that fits, drawn from t = active, f = inactive

Solved entries (count: 3):
How was "CN1CCN(Cc2ccc(NC(=O)c3cncc(C#Cc4cnc5ccc(N[C@H]6CCOC6)nn45)c3)cc2C(F)(F)F)CC1" classified in this test?
t

How was "CN1CCN(c2ccc(C(=O)/C=C/c3ccc(OC(F)F)cc3)cc2)CC1" classified in this test?
f

How was "O=[N+]([O-])c1ccc(-c2nc(-c3ccccc3)c(-c3ccccc3)n2-c2ccc(S(=O)(=O)Nc3ncccn3)cc2)cc1" classified in this test?
f

For the next question, use this molecule.
How was "O=c1[nH]c2ccc(Cl)cc2cc1CSc1ccc(Nc2nccc(-c3ccc4ccccc4c3)n2)cc1" classified in this test?
f

----------
# Test system: CCRF-CEM leukemia
# assay_text: NCI-60 one-dose screen, 48 h (100 = growth as untreated, 0 = no growth, -100 = all killed)
# condition_label: 10 µM
Compounds without any hit were thinned out: in the full panel of roughly 83,000, 20% have a hit.
Threshold rule: growth greater than or equal to 30% is t; below that, f.

In plain terms: is recorded growth at least 30% for "Cc1ccc([N+](=O)[O-])c(C(=O)Nc2ccc(-c3ccc4c(c3)NC(=O)/C4=C\c3ccc[nH]3)cc2)c1" ?
f

In plain terms: is recorded growth at least 30% for "COc1ccc2nc(Cl)c(-c3cc(-c4ccccc4)nc(=O)[nH]3)cc2c1" ?
f

In plain terms: is recorded growth at least 30% for "Cc1noc2c(Cc3ccc([N+](=O)[O-])cc3)nn(CC(=O)N/N=C/c3ccc(Cl)cc3)c(=O)c12" ?
t

In plain terms: is recorded growth at least 30% for "NS(=O)(=O)c1ccc(NC(=O)CSc2ccc(-c3ccccc3)nn2)c(Br)c1" ?
t

In plain terms: is recorded growth at least 30% for "C#Cc1ccc(S(=O)(=O)Nc2cccc(-c3csc(NC(C)=O)n3)c2)cc1" ?
t

In plain terms: is recorded growth at least 30% for "Nc1cccnc1/C=N/NC(=S)NCCNC(=O)c1ccc(-n2nc(-c3ccccc3O)nc2-c2ccccc2O)cc1" ?
f

In plain terms: is recorded growth at least 30% for "COc1ccc(/C(C)=N/N=C2C(=O)N(C)c3ccc(Br)cc32)cc1S(N)(=O)=O" ?
t

In plain terms: is recorded growth at least 30% for "N#Cc1c(NC(=O)c2ccc(C(F)(F)F)cc2C(F)(F)F)sc2c1CCC(=O)C2" ?
f

In plain terms: is recorded growth at least 30% for "Nc1nc2c(F)c(F)c(F)c(F)c2s1" ?
t

In plain terms: is recorded growth at least 30% for "COc1ccccc1C(=O)NNC(=O)CSc1nc2c(c(=O)[nH]1)CCCC2" ?
t

---
In plain terms: is recorded growth at least 30% for "Brc1ccc(/C=N/Nc2ncnc3sc4c(c23)CCN(Cc2ccccc2)C4)cc1" ?
f

In plain terms: is recorded growth at least 30% for "Cc1cccc(-c2nc(Nc3ccccc3C(=O)O)c3ccccc3n2)c1" ?
f

In plain terms: is recorded growth at least 30% for "CC(C)Sc1nc(NC2CC2)c(C#N)c(-c2ccccc2)n1" ?
t
